Test: Quantitative High-Throughput drug screen in 47 multiple myeloma cell lines against the NCATS MIPE library collection: MM1R_ATCC cell viability assay (AID 1918981); note: nearly all actives have a fitted effect of over 35% in size
Details: MM1R multiple myeloma cells, CellTiter-Glo viability, 48 h; series mostly up to 45.8 µM
Results filed as inconclusive are left out. Active and inactive are the calls of the source. Calls come from the whole dose curve; as a rule, active = well fitted cell-killing curve with a large enough effect; inconclusive = small, poorly fitted or top-dose-only effect, or effect the other way; inactive = no such curve, though single readings can be large or run the other way.
Write down one outcome, taken from 1 = active, 0 = inactive

See these solved cases before continuing.
compound	classification
Cn1c(=O)c(-c2c(Cl)cccc2Cl)cc2cnc(Nc3cccc(C(=O)O)c3)nc21	1
CNC1[C@H](O)C(O[C@@H]2C(O)C(O[C@H]3O[C@H]([C@@H](C)NC)CC[C@H]3N)[C@@H](N)C[C@H]2N)OC[C@]1(C)O (stereo not given in full)	0
CO[C@H]1C=CO[C@@]2(C)Oc3c(C)c(O)c4c(O)c(c(C=NN5CCN(C)CC5)c(O)c4c3C2=O)NC(=O)C(C)=CC=C[C@H](C)[C@H](O)[C@@H](C)[C@@H](O)[C@@H](C)[C@H](OC(C)=O)[C@H]1C	1
CN(C)c1nc(Cc2ccc(NC(=O)c3ccc(C(F)(F)F)cc3)cc2)nc(N(C)C)c1CC(=O)O	1
CC=C1C2C=C(C)CC1(N)c1ccc(=O)[nH]c1C2 (stereo not given)	0
O=C1C(CCC(O)c2ccc(F)cc2)C(c2ccc(O)cc2)N1c1ccc(F)cc1 (stereo not given)	0

Consider the additional compound presented here.
Please let me know the test result on file for COC1CCC(C(=O)c2ccc3nc4c(cc3c2)CCCO4)CC1 (stereo not given) .
1

----------
Assay: Quantitative High-Throughput drug screen in 47 multiple myeloma cell lines against the NCATS MIPE library collection: JIM1_ECACC cell viability assay (AID 1918964)
Details: JIM1 myeloma viability, CellTiter-Glo ATP luminescence, 48 h; series mostly up to 45.8 µM
Results filed as inconclusive are left out. Active and inactive are the calls of the source. The call rests on the fitted dose curve; in most records, active means well fitted cell-killing curve with a large enough effect; inconclusive means small, poorly fitted or top-dose-only effect, or effect the other way; inactive means no such curve, though single readings can be large or run the other way.
Write down one outcome, taken from active, inactive

See these solved cases before continuing.
compound	classification
Fc1ccc(C(c2ccc(F)cc2)N2CCN(CC=Cc3ccccc3)CC2)cc1	inactive
CCNC(=O)CCCC=CC[C@@H]1[C@H](C=CC(O)CCc2ccccc2)[C@@H](O)C[C@@H]1O (stereo not given in full)	inactive
CN1CCN(c2ncc(-c3cc(Cl)cc(Cl)c3Cl)c(N)n2)CC1	active
O=c1[nH]nc(OCCCc2ccc(Cl)cc2)c(NCc2cccnc2)c1Br	active
Cc1ccc(NC(=O)Nc2cc(C(F)(F)F)ccc2F)cc1Nc1ccc2c(c1)NC(=O)C2=Cc1ccc[nH]1	active
CC(C)CNc1ccnc(NCc2csc(-c3ccccc3)n2)n1	active
CN(C)CCOc1ccc(-c2nc(-c3ccc4c(c3)CCC4=NO)c(-c3ccncc3)[nH]2)cc1	active
COc1ccc(C=CC(=O)Nc2ccccc2C(=O)O)cc1OC	inactive

Please let me know the test result on file for Nc1ncnc2c1ncn2[C@@H]1O[C@H](CO)[C@@H](O)[C@@H]1O .
active

Please let me know the test result on file for C=CCc1cccc(C=NNC(=O)CN2CCN(Cc3ccccc3)CC2)c1O .
active

----------
Assay: Identifying Small Molecule Inhibitors of Pancreatic Cancer Stem Cells (SN12C, Adherent) (AID 1259358);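 note: cell survival measured after 48 h of compound exposure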
Conditions: viability/growth inhibition; series mostly up to 46.1 µM
Inconclusive results are not listed. Activity calls are given as the source filed them. Calls follow the shape of the dose curve; as a rule, active = well fitted cell-killing curve with a large enough effect; inconclusive = small, poorly fitted or top-dose-only effect; inactive = flat fitted curve, though single readings scatter.
Write down one outcome, taken from active, inactive

smiles_notation	classification
Nc1ccc(-c2ccc3ncc4ccc(=O)n(-c5cccc(C(F)(F)F)c5)c4c3c2)cn1	inactive
CCNC(=O)c1noc(-c2cc(C(C)C)c(O)cc2O)c1-c1ccc(CN2CCOCC2)cc1	active
NC(=O)c1ccc(N(C(N)=O)c2c(F)cccc2F)nc1-c1ccc(F)cc1F	inactive

Please let me know the test result on file for CNC(=O)c1cc(COc2nnc(Nc3ccc(Cl)cc3)c3ccoc23)ccn1 .
inactive

Please let me know the test result on file for Cc1c(C(=O)Nc2ccc(N3C[C@@H](C)O[C@@H](C)C3)nc2)cccc1-c1ccc(OC(F)(F)F)cc1 .
inactive

Please let me know the test result on file for C[C@@H](O[C@H]1OCCN(Cc2n[nH]c(=O)[nH]2)[C@@H]1c1ccc(F)cc1)c1cc(C(F)(F)F)cc(C(F)(F)F)c1 .
active

Please let me know the test result on file for CC(=O)NCCC(=O)N[C@@H](CCC(N)=O)C(=O)N[C@@H](CO)C(=O)N[C@@H](CCC(N)=O)C(=O)N[C@@H](CCC(N)=O)C(=O)N[C@H](C(=O)N[C@@H](Cc1ccccc1)C(=O)N[C@]1(C)CCCCCCC=CCCC[C@@](C)(C(=O)N[C@@H](CCC(N)=O)C(=O)N[C@@H](CC(N)=O)C(N)=O)NC(=O)[C@H](CC(C)C)NC(=O)[C@H](CC(C)C)NC(=O)[C@@H](CCCNC(=N)N)NC(=O)[C@H](Cc2c[nH]c3ccccc23)NC(=O)[C@H](CC(C)C)NC(=O)[C@H](CC(N)=O)NC1=O)[C@H](C)O .
inactive

----------
Assay: Quantitative High-Throughput drug screen in 47 multiple myeloma cell lines against the NCATS MIPE library collection: MM1S_ATCC cell viability assay (AID 1918980); note: nearly all actives have a fitted effect of over 45% in size
Conditions: MM1S myeloma viability, CellTiter-Glo ATP luminescence, 48 h; series mostly up to 45.8 µM
Inconclusive results are not listed. The source made the active and inactive calls. Calls come from the whole dose curve; as a rule, active = well fitted cell-killing curve with a large enough effect; inconclusive = small, poorly fitted or top-dose-only effect, or effect the other way; inactive = no such curve, though single readings can be large or run the other way.
Write down one outcome, taken from 1 (yes) for active, 0 (no) for inactive

See these solved cases before continuing.
compound	classification
CCNC(=O)CCCC=CC[C@@H]1[C@H](C=CC(O)CCc2ccccc2)[C@@H](O)C[C@@H]1O (some centres undefined)	1 (yes)
CC[C@]1(O)C[C@H]2CN(CCC3=c4ccccc4=N[C]3[C@@](C(=O)OC)(c3cc4c(cc3OC)N(C)[C@H]3[C@@](O)(C(N)=O)[C@H](O)[C@]5(CC)C=CCN6CC[C@]43[C@@H]65)C2)C1	1 (yes)
CC1(C)[C@H]2CC[C@]3(C)[C@@H](C(=O)C=C4[C@@H]5C[C@@](C)(C(=O)O)CC[C@]5(C)CC[C@]43C)[C@@]2(C)CC[C@@H]1O	0 (no)
CCC(c1ccc(O)cc1)C(CC)c1ccc(O)cc1 (centres undefined)	1 (yes)

Please let me know the test result on file for CCCCC[C@H](O)C=C[C@H]1[C@H](O)CC(=O)[C@H]1CCCCCCC(=O)O .
1 (yes)

Please let me know the test result on file for CCNC(=O)c1noc(-c2cc(C(C)C)c(O)cc2O)c1-c1ccc(CN2CCOCC2)cc1 .
1 (yes)

----------
Test: qHTS of pediatric cancer cell lines to identify multiple opportunities for drug repurposing: Primary screen for A673 cells (AID 1347092); note: nearly all actives have a fitted effect of over 45% in size
Settings: A673 Ewing sarcoma viability, CellTiter-Glo ATP luminescence, 48 h; series mostly up to 46 µM
Records with an inconclusive call do not appear. Active and inactive are the calls of the source. Calls come from the whole dose curve; as a rule, active = well fitted cell-killing curve with a large enough effect; inconclusive = small, poorly fitted or top-dose-only effect; inactive = no such curve, though single readings can be large or run the other way.
Write down one outcome, taken from yes (1) = active, no (0) = inactive

Please let me know the test result on file for Cc1c(C(=O)Nc2ccc(N3C[C@@H](C)O[C@@H](C)C3)nc2)cccc1-c1ccc(OC(F)(F)F)cc1 .
yes (1)

Please let me know the test result on file for Cc1ccc(C(=O)N(CCCN)[C@@H](c2nc3cc(Cl)ccc3c(=O)n2Cc2ccccc2)C(C)C)cc1 .
yes (1)

Please let me know the test result on file for CC(C)[C@H](O)C(=O)N[C@@H](C)C(=O)N[C@@H]1C(=O)N(C)CCc2ccccc21 .
yes (1)

Please let me know the test result on file for CC1CCN(c2cc(N3CCN(C)CC3)ccc2NC(=O)c2cc(C#N)c[nH]2)CC1 .
no (0)

Please let me know the test result on file for CN(C(Cc1ccc(OS(=O)(=O)c2cccc3cnccc23)cc1)C(=O)N1CCN(c2ccccc2)CC1)S(=O)(=O)c1cccc2cnccc12 (configuration not stated) .
yes (1)

Please let me know the test result on file for CO[C@H]1/C=C\O[C@@]2(C)Oc3c(C)c(O)c4c(O)c(c(C=NN5CCN(C6CCCC6)CC5)c(O)c4c3C2=O)NC(=O)C(C)=CC=C[C@H](C)[C@H](O)[C@@H](C)[C@@H](O)[C@@H](C)[C@H](OC(C)=O)[C@H]1C .
yes (1)

Please let me know the test result on file for O=C1C(c2c(O)[nH]c3ccccc23)=Nc2ccccc21 .
yes (1)

Please let me know the test result on file for NCC1CCC(C(=O)O)CC1 (configuration not stated) .
no (0)

Please let me know the test result on file for CC[C@]1(O)C[C@H]2CN(CCC3=c4ccccc4=N[C]3[C@@](C(=O)OC)(c3cc4c(cc3OC)N(C)[C@H]3[C@@](O)(C(N)=O)[C@H](O)[C@]5(CC)C=CCN6CC[C@]43[C@@H]65)C2)C1 .
yes (1)

----------
Tested on: C33A
Assay: Primary qHTS to identify gynecologic anti-cancer compounds using libraries of approved drugs and bioactive compounds (AID 1345084); note: nearly all actives have a fitted effect of over 55% in size
Conditions: Gynecologic cancer cell panel viability, ATPlite luminescence, 48 h; series mostly up to 57.5 µM
Results filed as inconclusive are left out. Activity calls are given as the source filed them. Calls come from the whole dose curve; as a rule, active = well fitted cell-killing curve with a large enough effect; inconclusive = small, poorly fitted or top-dose-only effect, or effect the other way; inactive = flat fitted curve, though single readings scatter.
Write down one outcome, taken from active, inactive

See these solved cases before continuing.
smiles_notation	classification
CN1CCC(COc2cnc(-c3cccc(Cn4nc(-c5cccc(C#N)c5)ccc4=O)c3)nc2)CC1	inactive
Cc1nc2c([nH]1)CCN(C(=O)c1ccc(NC(=O)c3ccccc3-c3ccccc3)cc1)c1ccccc1-2	inactive
COc1nc(C)cnc1NS(=O)(=O)c1cccnc1-c1ccc(-c2nnco2)cc1	inactive
COc1ccc(Cn2ccc3ccc(C(=O)NO)cc32)cc1	inactive
CCN(CCO)CCCOc1ccc2c(Nc3cc(CC(=O)Nc4cccc(F)c4)[nH]n3)ncnc2c1	inactive

Please let me know the test result on file for C[C@@]1(C(=O)Nc2ccc(F)nc2)CCCN1c1nc(Nc2cc(C3CC3)[nH]n2)c2cccn2n1 .
inactive

Please let me know the test result on file for COc1cc(Nc2nc3ccccc3nc2NS(=O)(=O)c2ccc(NC(=O)c3ccc(C)c(OC)c3)cc2)cc(OC)c1 .
inactive

Please let me know the test result on file for COc1nccc(-c2c(-c3ccc(F)cc3)ncn2C2CCNCC2)n1 .
inactive

Please let me know the test result on file for CCc1cccc(CC)c1NC(=O)N1Cc2[nH]nc(NC(=O)c3ccc(N4CCN(C)CC4)cc3)c2C1 .
inactive

Please let me know the test result on file for CC(C)(OCc1nn(Cc2ccccc2)c2ccccc12)C(=O)O .
inactive

Please let me know the test result on file for Cn1cnc(-c2cc3nccc(Oc4ccc(NC(=S)NC(=O)Cc5ccccc5)cc4F)c3s2)c1 .
inactive
